- EXPERIMENTAL PROTOCOL: Plasma protein binding in human at 10 uM
- Assay type: ADME, cell-free
- CONDITIONS: read-out: PPB (converted)
ASSAY METRIC: fraction unbound at 10 µM
Respond with the number and no other words.

IN: Please report fraction unbound at 10 µM for the following compound: "CC(=O)N1CCN(c2ccc(CN(C(=O)/C=C/c3ccc(C(C)(C)C)cc3)[C@@H](Cc3ccccc3)C(=O)N3CCN(Cc4ccc(C#N)cc4)CC3)cc2)CC1"
OUT: 0.0004

----------
- EXPERIMENTAL PROTOCOL: Elimination half life in mouse at 3 mg/kg, iv
- Format: ADME, organism-based
- CONDITIONS: in vivo, read-out: beta t1/2 (converted)
ASSAY METRIC: half-life
Put down the number, then write its unit next to it.

IN: Please report half-life for the following compound: "CC(=O)N1CCN(c2ccc(CN(C(=O)/C=C/c3ccc(C(C)(C)C)cc3)[C@@H](Cc3ccccc3)C(=O)N3CCN(Cc4ccc(C#N)cc4)CC3)cc2)CC1"
OUT: 34 h
